Source: ChEMBL document CHEMBL3433997

# tested target: Solute carrier family 2, facilitated glucose transporter member 1 (Homo sapiens) (UniProt P11166)
# Sequence (P11166 whole entry): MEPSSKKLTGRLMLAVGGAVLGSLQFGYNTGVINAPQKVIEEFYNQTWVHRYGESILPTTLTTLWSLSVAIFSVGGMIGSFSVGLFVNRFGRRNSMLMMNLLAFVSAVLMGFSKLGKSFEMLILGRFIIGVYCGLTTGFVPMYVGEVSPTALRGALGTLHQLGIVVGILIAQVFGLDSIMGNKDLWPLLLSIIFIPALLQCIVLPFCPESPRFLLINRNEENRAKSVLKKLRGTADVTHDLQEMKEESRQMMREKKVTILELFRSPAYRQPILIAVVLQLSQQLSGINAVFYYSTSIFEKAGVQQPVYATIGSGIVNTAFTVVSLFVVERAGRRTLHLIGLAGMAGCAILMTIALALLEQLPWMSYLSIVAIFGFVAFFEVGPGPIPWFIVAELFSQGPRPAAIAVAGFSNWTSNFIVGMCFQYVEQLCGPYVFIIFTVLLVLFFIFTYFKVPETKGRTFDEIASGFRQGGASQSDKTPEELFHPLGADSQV
# protocol description: ST_JUDE_LEISH: Cytotoxicity at 2uM final concentration against transgenic Leishmania Mexicana promastigotes LmGLUT1 that are glucose transport deficient and complemented with the human glucose transporter GLUT1. Activity is measured by DNA content using SYBR green in vitro
# Format: functional
Recorded inhibition by entry
Could you give me the number in %? Just the number is fine.

Known inhibition results, listed for orientation:
molecule=FC(F)(F)c1ccc2c(NCCc3ccccc3)ccnc2c1 reported_result=4.24
molecule=CC=CCON1C(=N)NC(=N)NC1(C)C reported_result=1.93
molecule=Cc1noc(-c2ccccc2)c1NC(=O)N1CCN(CCCCCCNC(=O)/C=C/c2ccc(Cl)c(Cl)c2)CC1 reported_result=-2.35
molecule=COc1ccc2nccc([C@@H](O)CN3CCC(NC(=O)/C=C/c4c[nH]c5c(C)cccc45)CC3)c2c1 reported_result=1.59
molecule=COc1ccc(CC(=O)Nc2ccc(Nc3nc(C)cc(N4CCCC4)n3)cc2)cc1 reported_result=46
molecule="COc1ccc(CNC(=O)NC2CCN(c3ccnc(Nc4cc(OC)c(OC)c(OC)c4)n3)C2)cc1 (centres undefined)" reported_result=1.55
molecule=N#Cc1cccc(C(=O)Nc2ccc(-c3ccc(CN4CCCC4)cc3)cc2)c1 reported_result=7.84
molecule=O=C(N/C=N/c1cc([N+](=O)[O-])c(-c2ccncc2)n1-c1ccccc1)c1cccc(O)c1 reported_result=0.21

Consider now this further molecule.
For COc1cc2c(C3CCN(CC4CCC(NC(=O)/C=C/c5ccc(Cl)c(Cl)c5)CC4)CC3)c[nH]c2cn1 (centres undefined) , what is its reported inhibition?
9.19

====

Recorded inhibition by entry
# tested target: Solute carrier family 2, facilitated glucose transporter member 1 (Homo sapiens) (UniProt P11166)
# protocol description: ST_JUDE_LEISH: Cytotoxicity at 2uM final concentration against transgenic Leishmania Mexicana promastigotes LmGLUT1 that are glucose transport deficient and complemented with the human glucose transporter GLUT1. Activity is measured by DNA content using SYBR green in vitro
# Format: functional
Could you give me the number in %? Just the number is fine.

molecule=Cc1cccc2nc(-c3ccc(-c4cccc(NC(=O)NCc5ccc(F)cc5)c4)cc3)[nH]c12 result_units=% reported_result=3.38

For COc1cc(F)c2nccc([C@@H](O)CN3CCC(NC(=O)OCc4ccccc4)C(F)C3)c2c1 (some centres undefined) , what is its reported inhibition?
11.6

For COc1ccc(-c2nc3cc4ccccc4nc3[nH]2)c(OCC(O)CNC(C)C)c1 (centres undefined) , what is its reported inhibition?
-1.53

For `Cn1nc(-c2ccc(NC(=O)Nc3ccc4ccccc4c3)c(F)c2)c2cnc(NCCN3CCOCC3)nc21` , what is its reported inhibition?
5.52

====

# tested target: Hexose transporter 1 (Plasmodium falciparum) (UniProt O97467)
# protocol description: ST_JUDE_LEISH: Cytotoxicity at 2uM final concentration against transgenic Leishmania Mexicana promastigotes LmPfHT that are glucose transport deficient and complemented with the Plasmodium falciparum hexose transporter. Activity is measured by DNA content using SYBR green in vitro
# Type: functional
measured quantity: inhibition (%)
Could you give me the number in %? Just the number is fine.

Known inhibition results, listed for orientation:
compound=CC(C)Oc1ccc2ccccc2c1CNCCCCCCNCc1c(OC(C)C)ccc2ccccc12 reported_result=-0.9
compound=Nc1nc(Cc2ccc(Cl)cc2)nc(Cc2ccc(Cl)cc2)n1 reported_result=-1.17
compound="CC1Cc2ccccc2N1S(=O)(=O)c1cc(OCC(F)(F)F)ccc1OCC(F)(F)F (centres undefined)" reported_result=3.54
compound="CN(C)c1ccc(-c2csc(C(=O)NCC3CCN(CC4CCCCC4)C3)c2)cc1 (centres undefined)" reported_result=0.77
compound=CCCc1cc(C(=O)N[C@@H](Cc2ccccc2)[C@H](O)CNC(C)C)c(F)c(N2CCCC2=O)c1 reported_result=-0.79

GET /values?readout=inhibition&system=Hexose transporter 1 (Plasmodium falciparum) (UniProt O97467)&item= `CC(=O)Nc1ccc(C(=O)N2CCN(c3ccnc4cc(Cl)ccc34)CC2)cc1`
-0.89

GET /values?readout=inhibition&system=Hexose transporter 1 (Plasmodium falciparum) (UniProt O97467)&item= `Cc1nc(C)c(CC(=O)Nc2cccc(-c3cccc(-c4nc5cccc(C)c5[nH]4)c3)c2)s1`
-0.36

GET /values?readout=inhibition&system=Hexose transporter 1 (Plasmodium falciparum) (UniProt O97467)&item= `COc1cc(Cc2cnc(N)nc2N)cc(OCCCN2C(=O)c3ccccc3C2=O)c1OC`
5.99

GET /values?readout=inhibition&system=Hexose transporter 1 (Plasmodium falciparum) (UniProt O97467)&item= `O=C(Nc1cccc(-c2nn3ccccc3c2-c2ccnc(Nc3cccc(N4CCCC4=O)c3)n2)c1)c1cc(F)ccc1F`
3.22

====

# tested target: Glucose transporter (Leishmania mexicana)
# protocol description: ST_JUDE_LEISH: Cytotoxicity at 2uM final concentration against transgenic Leishmania Mexicana promastigotes LmGT2 that are glucose transport deficient and complemented with the L. Mexicana glucose transporter 2. Activity is measured by DNA content using SYBR green in vitro
# Type: functional
measured quantity: inhibition (%)
Could you give me the number in %? Just the number is fine.

molecule=Oc1nc(Cc2ccccc2)nc2ccc(Cl)cc12 tested_target="Glucose transporter (Leishmania mexicana)" measured_quantity=inhibition result_units=% reported_result=4.12
molecule=CS(=O)(=O)c1ccc(OCCCN(Cc2ccccc2C(F)(F)F)c2ccc(C#N)c(C(F)(F)F)c2)cc1 tested_target="Glucose transporter (Leishmania mexicana)" measured_quantity=inhibition result_units=% reported_result=0.65
molecule="CC(Nc1cc(-c2ccccn2)nc(-c2ccccn2)n1)c1ccccc1 (stereo not given)" tested_target="Glucose transporter (Leishmania mexicana)" measured_quantity=inhibition result_units=% reported_result=17.5

Consider now this further molecule.
For `CS(=O)(=O)c1ccc(-c2cncc(Cl)n2)cc1` , what is its reported inhibition?
10.2

====

Recorded inhibition by entry
# tested target: Glucose transporter (Leishmania mexicana) (UniProt O61059)
# protocol description: ST_JUDE_LEISH: Cytotoxicity at 2uM final concentration against transgenic Leishmania Mexicana promastigotes LmGT2 that are glucose transport deficient and complemented with the L. Mexicana glucose transporter 2. Activity is measured by DNA content using SYBR green in vitro
# Type: functional
Could you give me the number in %? Just the number is fine.

Known inhibition results, listed for orientation:
molecule=O=C(NOCCCCOc1ccc(Cl)c(Cl)c1)c1ccccc1 result_units=% reported_result=-1.29
molecule=CC(C)NC[C@@H](O)[C@H](Cc1ccccc1)NC(=O)c1cc2c3c(c1)c(C(C)C)cn3CCS(=O)(=O)N2C result_units=% reported_result=2.8
molecule=COc1ccc2nc3cc(Cl)ccc3c(NCCCCN)c2c1 result_units=% reported_result=0.04
molecule="N#Cc1ccc2c(c1)CCN(CCC1CCC(NC(=O)Nc3cnc4ccccc4c3)CC1)C2 (centres undefined)" result_units=% reported_result=2.03
molecule=CS(=O)(=O)Cc1ccc(Nc2nccc(-c3c(-c4cccc(NC(=O)C5CCCCC5)c4)nn4ncccc34)n2)cc1 result_units=% reported_result=1.63
molecule=CCN(CC)S(=O)(=O)c1cc(-c2ccc(=O)n(CC(=O)c3ccc(C)cc3)n2)ccc1C result_units=% reported_result=2.45
molecule=CCNc1cc(C(=O)N[C@@H](Cc2ccccc2)[C@H](O)CN[C@H](C)C(C)(C)C)cc(N2CCCCS2(=O)=O)c1 result_units=% reported_result=2.33
molecule=CC(=NNC(=N)N)c1ccc2c(ccc3ccccc32)c1 result_units=% reported_result=0.58

Consider now this further molecule.
For `Cn1c(N)cc(-c2cccc(I)c2)c2c(=O)nc(N)nc1-2` , what is its reported inhibition?
2.89

====

# tested target: Hexose transporter 1 (Plasmodium falciparum)
# protocol description: ST_JUDE_LEISH: Cytotoxicity at 2uM final concentration against transgenic Leishmania Mexicana promastigotes LmPfHT that are glucose transport deficient and complemented with the Plasmodium falciparum hexose transporter. Activity is measured by DNA content using SYBR green in vitro
# Type: functional
Recorded inhibition by entry
Could you give me the number in %? Just the number is fine.

compound=Cn1cncc1CCN(Cc1ccc(-c2ccc(C(F)(F)F)cc2)cc1)C(=O)Cn1c(SCc2cccc(F)c2F)cc(=O)c2ccccc21 reported_result=1.65

For `CO/C(=C\C=C\c1cc2cc(Cl)c(Cl)cc2[nH]1)C(=O)NCC(C)(C)CN(C)C` , what is its reported inhibition?
2.21

For `Cc1ccc2c(c1)c(C1CCN(C(=O)c3ccc([N+](=O)[O-])o3)CC1)cn2C` , what is its reported inhibition?
9.14

For `CO/C(=C\C=C\c1cc2cc(Cl)c(Cl)cc2[nH]1)C(=O)NCCCN1CCN(c2cccc(OCC(=O)Nc3ccccc3)c2)CC1` , what is its reported inhibition?
8.92

For `Clc1ccccc1CN1CCC(NCc2cccc(-n3ccnc3)c2)CC1` , what is its reported inhibition?
-1.07

For Clc1ccc(OC2CCC(Cn3ccnc3)(c3ccc(Cl)cc3Cl)CC2)c(Cl)c1 (centres undefined) , what is its reported inhibition?
3.28

For `CCC(C)(C)c1ccc(Oc2ccc(NC(=O)Nc3ccc(Cl)c(Cl)c3)cc2)cc1` , what is its reported inhibition?
1.24

For `O=C(NCCCCCN1CCC(c2c[nH]c3ccccc23)CC1)Nc1ccc(I)c(Cl)c1` , what is its reported inhibition?
4.76

For `Cc1n[nH]c2cc(F)c(-c3cc(OC[C@@H](N)Cc4ccccc4)cnc3-c3ccoc3)cc12` , what is its reported inhibition?
16.1

For `COc1ccc(NC(=O)/C=C/c2ccccc2Cl)cc1OCCN1CCC(N2CCCCC2)CC1` , what is its reported inhibition?
7.17

For `O=C(NC1CCN(CCC[C@]2(c3ccc(Cl)c(Cl)c3)CCCN(C(=O)c3ccccc3)C2)CC1)c1ccc(F)cc1` , what is its reported inhibition?
2.13

For `O=C(/C=C/c1ccc(C(F)(F)F)cc1)NCCCCCN1CCC(c2c[nH]c3ccccc23)CC1` , what is its reported inhibition?
-1.37
